We begin with a simple list: items and their reported inhibition at 100 ppm.
TARGET_OR_TEST_SYSTEM: AtPPO1 S305L G404A Y426V T431R L479N (SEQ ID NO.127) (Arabidopsis thaliana, UniProt P55826, G404A/L479N/S305L/T431R/Y426V)
Construct: made in house; host or cells: E. coli BL21 (DE3) hemG, crude extract
Sequence (P55826 35-537 S305L/G404A/Y426V/T431R/L479N): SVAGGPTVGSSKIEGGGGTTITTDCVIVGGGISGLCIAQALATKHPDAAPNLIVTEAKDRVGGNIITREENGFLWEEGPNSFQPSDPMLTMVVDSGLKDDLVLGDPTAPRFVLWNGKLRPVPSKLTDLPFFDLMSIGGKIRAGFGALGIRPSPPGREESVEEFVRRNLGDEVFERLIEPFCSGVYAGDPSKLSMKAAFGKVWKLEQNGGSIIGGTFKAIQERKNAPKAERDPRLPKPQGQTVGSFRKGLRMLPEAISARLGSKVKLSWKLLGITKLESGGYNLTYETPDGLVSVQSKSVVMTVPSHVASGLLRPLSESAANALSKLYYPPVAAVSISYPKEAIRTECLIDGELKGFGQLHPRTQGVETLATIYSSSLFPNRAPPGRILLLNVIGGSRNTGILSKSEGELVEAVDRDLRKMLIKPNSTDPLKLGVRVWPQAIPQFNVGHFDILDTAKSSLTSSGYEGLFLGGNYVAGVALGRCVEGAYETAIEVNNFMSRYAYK
PROTOCOL_NOTES: fluorescent Protoporphyrinogen Oxidase assay, crude extract
Assay type: biochemical
REPORTED_CONDITIONS: read-out: percentage inhibition
Method: A pET24 plasmid containing a DNA sequence encoding each identified variant mutant of AtPPO1 derived from Arabidopsis thaliana, codon-optimised for expression in E. coli, and under control of a T7 promoter, was synthesised by Twist Bioscience. […] Protein concentration was measured and calculated using the absorbance at 280 nm. Extracts were diluted 1 in 4 and 10 uL was analysed by SDS PAGE. […]
PROPERTY_NAME: inhibition at 100 ppm (%)

{"COMPOUND": "CCOC(=O)C1(C)CC(c2cc(-n3c(=O)cc(C(F)(F)F)n(C)c3=O)c(F)cc2Cl)=NO1 (centres unmarked) [Herbicide C]", "UNIT_OF_MEASUREMENT": "%", "RECORDED_MEASUREMENT": 96}
{"COMPOUND": "CCOC(=O)COc1ncccc1Oc1cc(-n2c(=O)cc(C(F)(F)F)n(C)c2=O)c(F)cc1Cl [Herbicide A, epyrifenacil]", "UNIT_OF_MEASUREMENT": "%", "RECORDED_MEASUREMENT": 88}
{"COMPOUND": "C#CCN1C(=O)C(F)(F)Oc2cc(F)c(-n3c(=O)n(C)c(=S)n(C)c3=O)cc21 [Herbicide B, trifludimoxazin]", "UNIT_OF_MEASUREMENT": "%", "RECORDED_MEASUREMENT": 100}
{"COMPOUND": "CC(C)N(C)S(=O)(=O)NC(=O)c1cc(-n2c(=O)cc(C(F)(F)F)n(C)c2=O)c(F)cc1Cl [Herbicide E, saflufenacil]", "UNIT_OF_MEASUREMENT": "%", "RECORDED_MEASUREMENT": 92}
{"COMPOUND": "CCOC(=O)[C@]1(C)CC(c2cc(-n3c(=O)n(C)c(=S)n(C)c3=O)c(F)cc2Cl)=NO1 [Herbicide D]", "UNIT_OF_MEASUREMENT": "%", "RECORDED_MEASUREMENT": 92}
